Tested on: M. para. isolated from resected tissue of CD patients
Test: in vitro test of seven antituberculosis drugs against M. para. using the Bactec system
Type: cell-based, Mycobacterium paratuberculosis
Details: Bactec system
property label: Status (resistant/sensitive)

Reference set (5 entries):
So for [H]/N=C(/N)N[C@H]1[C@H](O)[C@@H](O)[C@H](O[C@@H]2O[C@@H](C)[C@](O)(C=O)[C@H]2O[C@@H]2O[C@@H](CO)[C@H](O)[C@@H](O)[C@@H]2NC)[C@@H](N/C(N)=N\[H])[C@@H]1O [ST, streptomycin] , the logged Status (resistant/sensitive) turned out to be R

The reported value for NNC(=O)c1ccncc1 [INH, isoniazid] in terms of Status (resistant/sensitive) is R

What the record says about CO[C@H]1/C=C/O[C@@]2(C)Oc3c(C)c(O)c4c(O)c(c(/C=N/N5CCN(C)CC5)c(O)c4c3C2=O)NC(=O)/C(C)=C\C=C\[C@H](C)[C@H](O)[C@@H](C)[C@@H](O)[C@@H](C)[C@H](OC(C)=O)[C@@H]1C [RIF, Rifampicin] : Status (resistant/sensitive) is R

Record summary for NC[C@H]1O[C@H](O[C@H]2[C@H](O)[C@@H](O[C@H]3O[C@H](CO)[C@@H](O)[C@H](N)[C@H]3O)[C@H](N)C[C@@H]2N)[C@H](O)[C@@H](O)[C@@H]1O [KM, kanamycin] : reported Status (resistant/sensitive) = R

Record CC[C@@H](CO)NCCN[C@@H](CC)CO [EMB, ethambutol] , field Status (resistant/sensitive): S

Next:
So for NC(=O)c1cnccn1 [PZA, pyrazinamide] , the logged Status (resistant/sensitive) turned out to be R
